B1: ETS1 (parent)
chain: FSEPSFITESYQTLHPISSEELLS

- Variants of: B1
- Experiment: protein stability index of a GFP-peptide fusion (GPS, HEK-293T) (PSI 1-6); higher = more stable;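 note: lentivirally expressed fusions sorted by FACS into six bins by GFP to DsRed ratio, PSI derived from sequencing read proportions per bin multiplied by bin number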
- Run parameters: c terminus: a fixed tail appended
Would you mind labelling by protein stability index? At or over 2 is label 1, under is label 0.

Example results:
E3N
label 0
F1E
label 1
I7S
label 1
S5W
label 1

*Q* Hello, I need to know if H15N has measured protein stability index not below 2. Thanks!
*A* label 0

*Q* Hello, I need to know if S10A has measured protein stability index not below 2. Thanks!
*A* label 0

Values from the supplement of paper PMC10567573
